system: reference strains of S. aureus; format: cell-based, Staphylococcus aureus; conditions: reference strains of, 24 h
Peptide text beside a SMILES is read from it. * marks the point of attachment. Myristoyl = CCCCCCCCCCCCCC(=O)*; Lauroyl = CCCCCCCCCCCC(=O)*; Hexanoyl = CCCCCC(=O)*
EXPERIMENTAL_READOUT: GM (geometric mean of the MIC values against S. aureus) (µg/mL)
Give the value in µg/mL but do not write µg/mL after it.

Looking up CCCCCCCCCCCCCC(=O)N[C@@H](CCCCN)C(=O)N[C@@H](CCCNC(=N)N)C(=O)N[C@H](C(=O)N[C@H](C(=O)N[C@@H](CCC(N)=O)C(=O)N[C@@H](CCCNC(=N)N)C(=O)N[C@H](C(=O)N[C@@H](CCCCN)C(=O)N[C@@H](CC(=O)O)C(=O)N[C@@H](Cc1ccccc1)C(=O)N[C@@H](CC(C)C)C(=O)N[C@@H](CCCNC(=N)N)C(N)=O)[C@@H](C)CC)C(C)C)[C@@H](C)CC [VII, C14-KR12-NH2] (Myristoyl-KRIVQRIKDFLR-NH2) , I found its GM (geometric mean of the MIC values against S. aureus) recorded as 64.00

Looking up CCCCCCCCCCCC(=O)N[C@@H](CCCCN)C(=O)N[C@@H](CCCNC(=N)N)C(=O)N[C@H](C(=O)N[C@H](C(=O)N[C@@H](CCC(N)=O)C(=O)N[C@@H](CCCNC(=N)N)C(=O)N[C@H](C(=O)N[C@@H](CCCCN)C(=O)N[C@@H](CC(=O)O)C(=O)N[C@@H](Cc1ccccc1)C(=O)N[C@@H](CC(C)C)C(=O)N[C@@H](CCCNC(=N)N)C(N)=O)[C@@H](C)CC)C(C)C)[C@@H](C)CC [VI, C12-KR12-NH2] (Lauroyl-KRIVQRIKDFLR-NH2) , I found its GM (geometric mean of the MIC values against S. aureus) recorded as 27.86

Looking up CCCCCC(=O)N[C@@H](CCCCN)C(=O)N[C@@H](CCCNC(=N)N)C(=O)N[C@H](C(=O)N[C@H](C(=O)N[C@@H](CCC(N)=O)C(=O)N[C@@H](CCCNC(=N)N)C(=O)N[C@H](C(=O)N[C@@H](CCCCN)C(=O)N[C@@H](CC(=O)O)C(=O)N[C@@H](Cc1ccccc1)C(=O)N[C@@H](CC(C)C)C(=O)N[C@@H](CCCNC(=N)N)C(N)=O)[C@@H](C)CC)C(C)C)[C@@H](C)CC [III, C6-KR12-NH2] (Hexanoyl-KRIVQRIKDFLR-NH2) , I found its GM (geometric mean of the MIC values against S. aureus) recorded as 9.19

---

tested on: S. aureus ATCC 6538; format: cell-based, Staphylococcus aureus; details: ATCC 6538, 18 h
Peptide text beside a SMILES is read from it. * marks the point of attachment. Lauroyl = CCCCCCCCCCCC(=O)*
EXPERIMENTAL_READOUT: MIC (µg/mL)
Give the value in µg/mL but do not write µg/mL after it.

Looking up CCCCCCCCCCCC(=O)N[C@@H](CCCCN)C(=O)N[C@@H](CCCNC(=N)N)C(=O)N[C@H](C(=O)N[C@H](C(=O)N[C@@H](CCC(N)=O)C(=O)N[C@@H](CCCNC(=N)N)C(=O)N[C@H](C(=O)N[C@@H](CCCCN)C(=O)N[C@@H](CC(=O)O)C(=O)N[C@@H](Cc1ccccc1)C(=O)N[C@@H](CC(C)C)C(=O)N[C@@H](CCCNC(=N)N)C(N)=O)[C@@H](C)CC)C(C)C)[C@@H](C)CC [VI, C12-KR12-NH2] (Lauroyl-KRIVQRIKDFLR-NH2) , I found its MIC recorded as 32

---

tested on: S. aureus ATCC 6538; assay type: cell-based, Staphylococcus aureus; settings: ATCC 6538, 18 h
Description: […]
Peptide text beside a SMILES is read from it. * marks the point of attachment. Myristoyl = CCCCCCCCCCCCCC(=O)*; Octanoyl = CCCCCCCC(=O)*; Butyryl = CCCC(=O)*
EXPERIMENTAL_READOUT: MIC (µg/mL)
Give the value in µg/mL but do not write µg/mL after it.

Looking up CCCCCCCC(=O)N[C@@H](CCCCN)C(=O)N[C@@H](CCCNC(=N)N)C(=O)N[C@H](C(=O)N[C@H](C(=O)N[C@@H](CCC(N)=O)C(=O)N[C@@H](CCCNC(=N)N)C(=O)N[C@H](C(=O)N[C@@H](CCCCN)C(=O)N[C@@H](CC(=O)O)C(=O)N[C@@H](Cc1ccccc1)C(=O)N[C@@H](CC(C)C)C(=O)N[C@@H](CCCNC(=N)N)C(N)=O)[C@@H](C)CC)C(C)C)[C@@H](C)CC [IV, C8-KR12-NH2] (Octanoyl-KRIVQRIKDFLR-NH2) , I found its MIC recorded as 2

Looking up CCCC(=O)N[C@@H](CCCCN)C(=O)N[C@@H](CCCNC(=N)N)C(=O)N[C@H](C(=O)N[C@H](C(=O)N[C@@H](CCC(N)=O)C(=O)N[C@@H](CCCNC(=N)N)C(=O)N[C@H](C(=O)N[C@@H](CCCCN)C(=O)N[C@@H](CC(=O)O)C(=O)N[C@@H](Cc1ccccc1)C(=O)N[C@@H](CC(C)C)C(=O)N[C@@H](CCCNC(=N)N)C(N)=O)[C@@H](C)CC)C(C)C)[C@@H](C)CC [II, C4-KR12-NH2] (Butyryl-KRIVQRIKDFLR-NH2) , I found its MIC recorded as 32

Looking up CCCCCCCCCCCCCC(=O)N[C@@H](CCCCN)C(=O)N[C@@H](CCCNC(=N)N)C(=O)N[C@H](C(=O)N[C@H](C(=O)N[C@@H](CCC(N)=O)C(=O)N[C@@H](CCCNC(=N)N)C(=O)N[C@H](C(=O)N[C@@H](CCCCN)C(=O)N[C@@H](CC(=O)O)C(=O)N[C@@H](Cc1ccccc1)C(=O)N[C@@H](CC(C)C)C(=O)N[C@@H](CCCNC(=N)N)C(N)=O)[C@@H](C)CC)C(C)C)[C@@H](C)CC [VII, C14-KR12-NH2] (Myristoyl-KRIVQRIKDFLR-NH2) , I found its MIC recorded as 64

Cited source: paper PMC7036753
